Experiment: Cytotoxicity against human SH-SY5Y cells assessed as reduction in cell viability at 20 uM incubated for 24 hrs by MTT assay
Type: cell-based
Conditions: read-out: INH
Experimental readout: cytotoxicity at 24 h, 20 µM (%)
// note: answer is a bare numeric in %

Recorded cytotoxicity at 24 h, 20 µM (molecule COc1cc(/C=C/C(=O)NCC(=O)Nc2ccc3[nH]ccc3c2)ccc1O ): 4.39

====

# Lookup of reported IC50 keyed by entry
Molecular target: UniProt P22303
Test: Inhibition of recombinant human erythrocyte AChE using acetylthiocholine iodide as substrate preincubated for 30 mins followed by substrate addition and measured after 30 mins by spectrophotometry based Ellman's method
// note: answer is a bare numeric in µM

Some solved cases for reference:
[
  {
    "Entry smiles": "COc1cc(/C=C/C(=O)NCC(=O)Nc2cccc(C(F)(F)F)c2)ccc1O",
    "Measure unit": "µM",
    "Readout number": 9.31
  },
  {
    "Entry smiles": "COc1cc(/C=C/C(=O)NCC(=O)Nc2ccc(C#N)cc2)ccc1O",
    "Measure unit": "µM",
    "Readout number": 17.4
  },
  {
    "Entry smiles": "COc1cc(/C=C/C(=O)NCC(=O)Nc2ccccc2C)ccc1O",
    "Measure unit": "µM",
    "Readout number": 16.3
  },
  {
    "Entry smiles": "COc1cc(/C=C/C(=O)NCC(=O)Nc2ccc(C(F)(F)F)cc2)ccc1O",
    "Measure unit": "µM",
    "Readout number": 8.23
  },
  {
    "Entry smiles": "COc1ccc(N2CCN(C(=O)/C=C/c3ccc(O)c(OC)c3)CC2)cc1",
    "Measure unit": "µM",
    "Readout number": 12
  },
  {
    "Entry smiles": "COc1cc(/C=C/C(=O)NCC(=O)Nc2cccc(Cl)c2)ccc1O",
    "Measure unit": "µM",
    "Readout number": 5.68
  },
  {
    "Entry smiles": "COc1cc(/C=C/C(=O)NCC(=O)Nc2ccc3ncccc3c2)ccc1O",
    "Measure unit": "µM",
    "Readout number": 4.89
  },
  {
    "Entry smiles": "COc1cc(/C=C/C(=O)NCC(=O)Nc2ccccc2F)ccc1O",
    "Measure unit": "µM",
    "Readout number": 17.2
  },
  {
    "Entry smiles": "COc1cc(/C=C/C(=O)NCC(=O)Nc2ccccc2OC)ccc1O",
    "Measure unit": "µM",
    "Readout number": 5.75
  },
  {
    "Entry smiles": "COc1cc(/C=C/C(=O)NCC(=O)Nc2ccccc2C(F)(F)F)ccc1O",
    "Measure unit": "µM",
    "Readout number": 15.1
  }
]

Recorded IC50 (compound COc1cc(/C=C/C(=O)NCC(=O)Nc2ccc(Br)cc2)ccc1O ): 10.2

Recorded IC50 (compound COc1cccc(NC(=O)CNC(=O)/C=C/c2ccc(O)c(OC)c2)c1 ): 2.42

Recorded IC50 (compound COc1cc(/C=C/C(=O)NCC(=O)Nc2cccc(C)c2)ccc1O ): 18.9

Recorded IC50 (compound COc1cc(/C=C/C(=O)NCC(=O)Nc2ccc(Cl)cc2)ccc1O ): 3.43

Recorded IC50 (compound COc1cc(/C=C/C(=O)NCC(=O)Nc2ccccc2Cl)ccc1O ): 5.72

Recorded IC50 (compound COc1cccc(N2CCN(C(=O)/C=C/c3ccc(O)c(OC)c3)CC2)c1 ): 9.91

Recorded IC50 (compound COc1ccc(NC(=O)CNC(=O)/C=C/c2ccc(O)c(OC)c2)cc1 ): 17.3

Recorded IC50 (compound COc1cc(/C=C/C(=O)NCC(=O)Nc2cccc(C#N)c2)ccc1O ): 16

====

Target: Cholinesterase (Equus caballus)
Sequence (P81908 whole entry): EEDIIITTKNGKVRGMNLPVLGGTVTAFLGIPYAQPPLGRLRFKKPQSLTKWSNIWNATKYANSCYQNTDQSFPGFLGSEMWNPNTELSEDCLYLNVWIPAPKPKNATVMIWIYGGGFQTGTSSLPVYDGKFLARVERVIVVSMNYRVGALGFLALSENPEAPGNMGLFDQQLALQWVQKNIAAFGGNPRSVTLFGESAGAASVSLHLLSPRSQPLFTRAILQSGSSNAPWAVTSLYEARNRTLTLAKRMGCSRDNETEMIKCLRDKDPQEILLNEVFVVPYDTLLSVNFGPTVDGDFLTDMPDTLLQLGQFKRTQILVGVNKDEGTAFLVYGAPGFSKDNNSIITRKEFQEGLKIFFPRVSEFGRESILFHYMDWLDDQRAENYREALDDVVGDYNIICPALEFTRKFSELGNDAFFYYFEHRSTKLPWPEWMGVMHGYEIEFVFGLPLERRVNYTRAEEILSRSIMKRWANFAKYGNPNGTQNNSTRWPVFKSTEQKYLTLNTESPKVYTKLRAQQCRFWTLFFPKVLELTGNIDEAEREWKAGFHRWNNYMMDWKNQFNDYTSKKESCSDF
Assay: Inhibition of […] equine serum BuChE using butyryl thiocholine iodide as substrate preincubated for 30 mins followed by substrate addition and measured after 30 mins by spectrophotometry based Ellman's method
# Lookup of reported pIC50 keyed by entry
pIC50 field: float, defined as -log10 of concentration (mol/L).

[
  {
    "Entry smiles": "COc1cc(/C=C/C(=O)NCC(=O)Nc2ccc3[nH]ccc3c2)ccc1O",
    "pIC50": 4.85
  }
]

Recorded pIC50 (molecule COc1ccc(NC(=O)CNC(=O)/C=C/c2ccc(O)c(OC)c2)cc1 ): 4.71

Recorded pIC50 (molecule COc1cccc(NC(=O)CNC(=O)/C=C/c2ccc(O)c(OC)c2)c1 ): 4.82

Recorded pIC50 (molecule COc1cc(/C=C/C(=O)NCC(=O)Nc2ccc3ncccc3c2)ccc1O ): 4.84

====

Biological target: Acetylcholinesterase (Homo sapiens, UniProt P22303)
Sequence (P22303 whole entry): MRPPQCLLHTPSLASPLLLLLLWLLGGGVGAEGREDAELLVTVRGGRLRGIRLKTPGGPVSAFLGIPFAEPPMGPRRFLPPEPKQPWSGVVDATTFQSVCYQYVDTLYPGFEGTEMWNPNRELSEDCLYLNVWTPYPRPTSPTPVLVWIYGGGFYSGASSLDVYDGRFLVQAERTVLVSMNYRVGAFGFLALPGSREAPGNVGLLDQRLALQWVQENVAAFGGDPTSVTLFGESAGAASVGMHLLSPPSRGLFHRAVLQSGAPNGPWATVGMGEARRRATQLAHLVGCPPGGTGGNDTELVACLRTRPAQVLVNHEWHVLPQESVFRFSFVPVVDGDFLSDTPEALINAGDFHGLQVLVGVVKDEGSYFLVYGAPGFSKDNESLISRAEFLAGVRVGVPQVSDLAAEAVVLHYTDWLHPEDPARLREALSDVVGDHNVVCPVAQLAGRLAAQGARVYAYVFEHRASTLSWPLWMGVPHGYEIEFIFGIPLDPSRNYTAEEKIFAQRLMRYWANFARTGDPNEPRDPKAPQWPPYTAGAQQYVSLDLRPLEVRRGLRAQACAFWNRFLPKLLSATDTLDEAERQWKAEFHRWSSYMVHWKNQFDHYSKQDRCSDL
Assay: Inhibition of recombinant human erythrocyte AChE using acetylthiocholine iodide as substrate preincubated for 30 mins followed by substrate addition and measured after 30 mins by spectrophotometry based Ellman's method
pIC50: −log10 of the molar value.
Returns one of YES or NO; YES when pIC50 is >= 5.

Before answering, review these 2 worked examples.
[
  {
    "Entry smiles": "COc1cc(/C=C/C(=O)NCC(=O)Nc2ccc3[nH]ccc3c2)ccc1O",
    "Assigned class": "YES"
  },
  {
    "Entry smiles": "COc1cc(/C=C/C(=O)N2CCN(c3cccc([N+](=O)[O-])c3)CC2)ccc1O",
    "Assigned class": "NO"
  }
]

In the following, a different compound is considered.
Check the entry COc1cc(/C=C/C(=O)NCC(=O)Nc2ccccc2)ccc1O : does pIC50 equal or exceed 5?
NO

====

Target: UniProt:P81908
Experiment: Inhibition of […] equine serum BuChE at 20 uM using butyryl thiocholine iodide as substrate preincubated for 30 mins followed by substrate addition and measured after 30 mins by spectrophotometry based Ellman's method relative to control
Assay type: cell-free
Settings: time 60.0 min
Returns one of met or not met; met when inhibition is >= 40%.

Before answering, review these 3 worked examples.
[
  {
    "Molecule": "COc1cc(/C=C/C(=O)NCC(=O)Nc2ccccc2F)ccc1O",
    "Measurement target": "UniProt:P81908",
    "Assigned class": "not met"
  },
  {
    "Molecule": "COc1cc(/C=C/C(=O)O)ccc1O [FERULATE]",
    "Measurement target": "UniProt:P81908",
    "Assigned class": "not met"
  },
  {
    "Molecule": "COc1cc(/C=C/C(=O)NCC(=O)Nc2ccc3ncccc3c2)ccc1O",
    "Measurement target": "UniProt:P81908",
    "Assigned class": "met"
  }
]

Check the entry COc1cc(/C=C/C(=O)NCC(=O)Nc2cccc(Cl)c2)ccc1O : does inhibition equal or exceed 40%?
met

Check the entry COc1cc(/C=C/C(=O)NCC(=O)Nc2cccc(C#N)c2)ccc1O : does inhibition equal or exceed 40%?
not met

Check the entry COc1cc(/C=C/C(=O)NCC(=O)Nc2ccccc2C)ccc1O : does inhibition equal or exceed 40%?
not met

Check the entry COc1cc(/C=C/C(=O)NCC(=O)Nc2ccc3[nH]ccc3c2)ccc1O : does inhibition equal or exceed 40%?
met

====

Biological target: Acetylcholinesterase (Homo sapiens, UniProt P22303)
Test: Inhibition of recombinant human erythrocyte AChE using acetylthiocholine iodide as substrate preincubated for 30 mins followed by substrate addition and measured after 30 mins by spectrophotometry based Ellman's method
# Lookup of reported IC50 keyed by entry
// note: answer is a bare numeric in µM

Some solved cases for reference:
[
  {
    "Entry smiles": "COc1cc(/C=C/C(=O)N2CCN(c3ccc(C)cc3)CC2)ccc1O",
    "Readout number": 19.5
  },
  {
    "Entry smiles": "COc1cc(/C=C/C(=O)N2CCN(c3ccccc3)CC2)ccc1O",
    "Readout number": 29.3
  }
]

Recorded IC50 (compound COc1cc(/C=C/C(=O)NCC(=O)Nc2cccc(F)c2)ccc1O ): 22.1

Recorded IC50 (compound COc1cc(/C=C/C(=O)N2CCN(c3ccc(Cl)cc3)CC2)ccc1O ): 11.1

====

Target: Acetylcholinesterase (Homo sapiens, UniProt P22303)
Experiment: Inhibition of recombinant human erythrocyte AChE using acetylthiocholine iodide as substrate preincubated for 30 mins followed by substrate addition and measured after 30 mins by spectrophotometry based Ellman's method
Experimental readout: pIC50
pIC50 field: float, defined as -log10 of concentration (mol/L).

Some solved cases for reference:
[
  {
    "Entry smiles": "COc1cc(/C=C/C(=O)N2CCN(c3ccc(F)cc3)CC2)ccc1O",
    "Experimental readout": "pIC50",
    "Readout number": 4.96
  },
  {
    "Entry smiles": "COc1cc(/C=C/C(=O)NCC(=O)Nc2cccc(Br)c2)ccc1O",
    "Experimental readout": "pIC50",
    "Readout number": 4.88
  },
  {
    "Entry smiles": "COc1cc(/C=C/C(=O)NCC(=O)Nc2ccc(F)cc2)ccc1O",
    "Experimental readout": "pIC50",
    "Readout number": 4.89
  }
]

Continue with the next molecule.
Recorded pIC50 (molecule COc1cc(/C=C/C(=O)NCC(=O)Nc2ccc(C)cc2)ccc1O ): 4.90

The reported measurements were obtained from ChEMBL document CHEMBL4765306.
